Test system: NCI-H460 lung
run description: NCI tumour cell line growth inhibition, 48 h
The entries below are paired with their reported TGI.

Request: Query (compound): `COc1ccc(/C=C\c2cc(OC)c(OC)c(OC)c2)cc1OCC(=O)Nc1ccc2nc(C)sc2c1` ; field requested: TGI
Response: 33.2 µM

Request: If you can, please state the reported TGI value of C#CC1(O)CCC2[C@@H]3CCc4cc(Oc5nc(F)nc(-c6c7ccccc7cn6C)n5)ccc4C3CC[C@@]21C (stereo not given in full) .
Response: > 100 µM

Request: I have this compound here, `Cc1cn(-c2ccc(S(C)(=O)=O)cc2)c(-c2ccc(Cl)cc2)n1` , and I need its recorded TGI.
Response: > 100 µM

Request: Please look up its TGI: `COc1ccc(Nc2nc3cc(N)cc(N)c3nc2-c2ccccc2)cc1OC`
Response: > 100 µM

Request: Give the measured TGI of `CCCC1(CCC)c2cc(/C=N\O)ccc2-c2ccc(-c3ccc(C(C)(C)C)cc3)cc21` .
Response: > 100 µM

###

Test system: BT-549 breast
run description: NCI tumour cell line growth inhibition, 48 h
We begin with a simple list: items and their reported TGI.

As a guide, the following entries are already answered.
>>> print(df.to_string())
                                   compound         target  observed_value
0  CC1C2=C(CCCC2=O)N(c2ccc(Cl)cc2)C2=C1C(=O)CCC2  BT-549 breast        > 100 µM
1  CCC(O)c1ccc(N=Cc2ccccc2O)cc1 (centres undefined)  BT-549 breast        > 100 µM
2              COc1cccc2cc(C(C)=O)c(=O)oc12  BT-549 breast        > 100 µM

As a next step, examine the compound that follows.
Request: Fill blank: measured TGI of the compound `CC(=O)C(=[N+]=[N-])C(=O)N(C)CCC#N` is ____.
Response: > 10 µM

###

Test system: MDA-MB-435
run description: NCI tumour cell line growth inhibition, 48 h
The compounds listed here are annotated with their TGI.

As a guide, the following entries are already answered.
                                   compound  observed_value
0  COc1nc2c(c(=O)n1C)N=C(c1ccc(Cl)cc1)CC(c1ccccc1)N2 (stereo unspecified)        > 100 µM
1  CC1(C)CCCCCC(C)(CCCO)C1=O (stereo unspecified)        > 100 µM
2  COc1ccc(-n2c(=O)n(-c3ccccc3)c(=O)n2-c2ccc(OC)cc2)cc1        > 100 µM
3  NC(=O)c1c(NC=O)ncn1C1OCC(O)C(O)C1O (stereo unspecified)        > 100 µM
4           Clc1ccccc1C(Nc1ncccn1)Nc1ncccn1        > 100 µM

Request: # lookup: TGI of `COc1cc(-n2ccnc2)cc(OC)c1OC`
Response: > 100 µM

Request: Item Cc1ccc(NC(=O)/C(=N/N(C)C)C(C2OC(=O)c3ccccc32)[N+](=O)[O-])cc1 (stereo unspecified) has what recorded TGI?
Response: > 100 µM

Request: Need TGI, item `Cc1ccc2[nH]c3[nH]c(=S)[nH]c(=O)c3c2c1`
Response: > 100 µM

Request: Bench note: what TGI did `COc1ccc(N(/C=C/C(=O)C(F)(F)F)CC(=O)c2ccc(Cl)cc2)cc1` show?
Response: 22 µM
